Target: adrenergic sites α1
Experiment: displacement of labelled specific ligand from adrenergic sites α1
Settings: no affinity
From the text: This affinity for 5-HT3 receptors is also selective.
pKi: −log10 of the molar value.
measured.endpoint: pKi

Recorded result, Cl.NC1CCN(c2cccc(Cl)n2)CC1 [CM 57227, hydrochloride] , pKi: < 5.00

* * *

biological target: dopaminergic sites D2 (Homo sapiens, UniProt P14416); test: displacement of labelled specific ligand from dopaminergic sites D2; settings: no affinity
Sequence (P14416 whole entry): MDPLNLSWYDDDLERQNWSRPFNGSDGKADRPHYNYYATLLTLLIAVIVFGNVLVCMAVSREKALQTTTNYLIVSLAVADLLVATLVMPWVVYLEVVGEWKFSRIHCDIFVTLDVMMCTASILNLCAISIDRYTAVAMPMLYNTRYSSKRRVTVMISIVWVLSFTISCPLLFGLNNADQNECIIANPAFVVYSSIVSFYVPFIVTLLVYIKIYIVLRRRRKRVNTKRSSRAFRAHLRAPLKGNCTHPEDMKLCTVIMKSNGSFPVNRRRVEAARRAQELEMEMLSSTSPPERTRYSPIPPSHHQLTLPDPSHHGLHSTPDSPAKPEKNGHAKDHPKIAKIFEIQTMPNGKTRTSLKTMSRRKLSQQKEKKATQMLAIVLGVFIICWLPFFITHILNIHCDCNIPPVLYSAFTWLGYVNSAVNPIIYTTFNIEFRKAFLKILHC
pKi: −log10 of the molar value.
measured.endpoint: pKi

Recorded result, Cl.NC1CCN(c2cccc(Cl)n2)CC1 [CM 57227, hydrochloride] , pKi: < 5.00
